target: Intercellular adhesion molecule (ICAM-1), Integrin alpha-L/beta-2 (Homo sapiens, UniProt P05107+P20701)
Sequence (P20701 whole entry): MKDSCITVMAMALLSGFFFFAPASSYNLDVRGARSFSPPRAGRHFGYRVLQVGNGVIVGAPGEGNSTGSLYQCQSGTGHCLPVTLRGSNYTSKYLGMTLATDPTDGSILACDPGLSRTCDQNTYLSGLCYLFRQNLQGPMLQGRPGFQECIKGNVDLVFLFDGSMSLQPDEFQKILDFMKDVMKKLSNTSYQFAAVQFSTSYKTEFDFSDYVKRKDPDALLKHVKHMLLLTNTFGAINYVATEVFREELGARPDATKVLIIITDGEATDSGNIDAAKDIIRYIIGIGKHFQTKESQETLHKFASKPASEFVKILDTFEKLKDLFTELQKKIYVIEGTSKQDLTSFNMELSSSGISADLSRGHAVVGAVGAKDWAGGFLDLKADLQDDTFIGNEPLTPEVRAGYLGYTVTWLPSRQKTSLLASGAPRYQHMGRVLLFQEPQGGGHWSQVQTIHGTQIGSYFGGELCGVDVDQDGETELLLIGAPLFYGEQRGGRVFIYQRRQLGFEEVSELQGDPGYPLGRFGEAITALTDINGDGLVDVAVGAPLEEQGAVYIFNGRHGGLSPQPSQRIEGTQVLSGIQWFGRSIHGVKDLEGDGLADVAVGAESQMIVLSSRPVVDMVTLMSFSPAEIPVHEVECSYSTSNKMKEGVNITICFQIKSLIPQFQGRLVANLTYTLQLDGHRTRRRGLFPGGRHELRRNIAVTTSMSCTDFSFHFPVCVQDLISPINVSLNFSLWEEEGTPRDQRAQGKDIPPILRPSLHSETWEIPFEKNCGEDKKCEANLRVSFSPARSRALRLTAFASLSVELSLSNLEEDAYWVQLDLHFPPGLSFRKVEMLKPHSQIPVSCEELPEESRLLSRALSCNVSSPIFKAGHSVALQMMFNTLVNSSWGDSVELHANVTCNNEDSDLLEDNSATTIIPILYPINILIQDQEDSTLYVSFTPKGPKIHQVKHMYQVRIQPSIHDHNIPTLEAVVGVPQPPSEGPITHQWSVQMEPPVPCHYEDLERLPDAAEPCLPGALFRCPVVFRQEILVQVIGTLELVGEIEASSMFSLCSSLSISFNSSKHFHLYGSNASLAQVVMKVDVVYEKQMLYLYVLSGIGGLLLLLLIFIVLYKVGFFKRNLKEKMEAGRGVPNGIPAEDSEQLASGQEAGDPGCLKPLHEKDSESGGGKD
Sequence (P05362 whole entry, further chain): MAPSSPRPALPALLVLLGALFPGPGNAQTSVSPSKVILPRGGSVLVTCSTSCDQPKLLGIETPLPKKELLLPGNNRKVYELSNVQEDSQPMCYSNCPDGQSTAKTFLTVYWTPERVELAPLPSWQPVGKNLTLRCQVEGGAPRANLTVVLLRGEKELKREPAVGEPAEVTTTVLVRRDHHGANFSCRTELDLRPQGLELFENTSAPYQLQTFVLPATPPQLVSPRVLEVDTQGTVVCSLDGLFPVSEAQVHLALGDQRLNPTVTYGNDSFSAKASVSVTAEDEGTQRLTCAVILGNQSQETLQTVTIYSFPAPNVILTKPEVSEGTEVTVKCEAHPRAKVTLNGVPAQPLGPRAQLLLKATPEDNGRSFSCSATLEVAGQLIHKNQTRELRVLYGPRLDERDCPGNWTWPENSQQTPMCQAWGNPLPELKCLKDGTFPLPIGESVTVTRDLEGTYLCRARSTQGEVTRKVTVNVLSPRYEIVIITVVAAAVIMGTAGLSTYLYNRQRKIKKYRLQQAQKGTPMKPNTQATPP
Sequence (P05107 whole entry): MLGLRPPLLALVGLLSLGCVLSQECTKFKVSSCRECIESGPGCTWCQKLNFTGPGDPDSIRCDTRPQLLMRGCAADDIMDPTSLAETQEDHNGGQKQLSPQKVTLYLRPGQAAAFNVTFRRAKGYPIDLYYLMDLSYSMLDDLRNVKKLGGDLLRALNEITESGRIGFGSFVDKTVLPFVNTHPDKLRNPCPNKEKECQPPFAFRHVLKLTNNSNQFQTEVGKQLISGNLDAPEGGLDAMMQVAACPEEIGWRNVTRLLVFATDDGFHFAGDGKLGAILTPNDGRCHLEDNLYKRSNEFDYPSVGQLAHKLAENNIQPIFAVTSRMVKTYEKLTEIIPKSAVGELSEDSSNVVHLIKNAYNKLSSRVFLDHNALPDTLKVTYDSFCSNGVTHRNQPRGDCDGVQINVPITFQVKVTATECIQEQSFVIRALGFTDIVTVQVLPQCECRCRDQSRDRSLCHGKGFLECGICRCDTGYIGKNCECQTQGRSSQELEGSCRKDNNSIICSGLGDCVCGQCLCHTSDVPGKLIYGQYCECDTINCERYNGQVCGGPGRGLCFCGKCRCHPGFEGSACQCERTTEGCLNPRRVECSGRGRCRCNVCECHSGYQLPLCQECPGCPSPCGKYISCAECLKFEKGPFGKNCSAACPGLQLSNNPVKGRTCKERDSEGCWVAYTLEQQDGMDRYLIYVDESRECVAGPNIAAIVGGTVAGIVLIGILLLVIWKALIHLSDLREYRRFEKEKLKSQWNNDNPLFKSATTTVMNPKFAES
Metric: IC50 (µM)
Write the answer as a number in µM, unit excluded.

Problem: Endpoint output: IC50 of "CC(=O)N1CCN(C(=O)/C=C/c2cccc([N+](=O)[O-])c2)CC1" . Value?
Solution: 80

====

assay: Dissociation constant against FK506 binding protein
For each of the compounds below, state its Kd.
Write the answer as a number in µM, unit excluded.

Problem: Endpoint output: Kd of "O=C(Nc1ccccc1O)c1ccc(O)cc1" . Value?
Solution: 800

Problem: Endpoint output: Kd of "O=C(Nc1ccc(O)cc1)c1ccc(O)cc1" . Value?
Solution: 100

Problem: Endpoint output: Kd of "COC(=O)[C@@H]1CCCCN1C(=O)C(=O)c1cc(OC)c(OC)c(OC)c1" . Value?
Solution: 2

Problem: Endpoint output: Kd of "COc1cc(C(=O)C(=O)N2CCCC[C@H]2C(=O)OCCCOc2ccc(C(=O)Nc3ccc(O)cc3)cc2)cc(OC)c1OC" . Value?
Solution: 0.019
